# System: Sinapis
# procedure summary: Post-emergent herbicidal action (contact herbicide)
# Type: in vivo
# condition parameters: 2000 g of active substance/ha, sprayed in the 4- to 6-leaf stage, evaluated after about 18 days, ratings scale 1-9
measure name: Post-emergent action, rating, Sinapis
Give the figure only, with no unit attached.

Below are worked cases with known answers.
Post-emergent action, rating, Sinapis for Sinapis with input CC1(C)CCCN(S2=NC(N)=NC(Oc3cc(F)ccc3F)=N2)C1 (stereo not shown) equals 2

Post-emergent action, rating, Sinapis for Sinapis with input NC1=NC(Oc2cc(F)ccc2F)=NS(N2CC[C@H]3CCCC[C@H]32)=N1 (relative stereo) equals 2

Post-emergent action, rating, Sinapis for Sinapis with input NC1=NS(N2CCCCCCCC2)=NC(Oc2c(F)c(F)cc(F)c2F)=N1 (stereo not shown) equals 2

Post-emergent action, rating, Sinapis for Sinapis with input NC1=NS(N2CCC[C@H]3CCCC[C@H]32)=NC(Oc2c(F)c(F)cc(F)c2F)=N1 (relative stereo) equals 1

Post-emergent action, rating, Sinapis for Sinapis with input NC1=NS(N2CCCCCCCC2)=NC(Oc2c(F)c(F)c(F)c(F)c2F)=N1 (stereo not shown) equals 2

New cases:
Post-emergent action, rating, Sinapis for Sinapis with input NC1=NC(Oc2c(F)c(F)c(F)c(F)c2F)=NS(N2CC[C@H]3CCC[C@H]32)=N1 (relative stereo) equals 2

Post-emergent action, rating, Sinapis for Sinapis with input CCCN(CCC)S1=NC(N)=NC(Oc2c(F)c(F)c(F)c(F)c2F)=N1 (stereo not shown) equals 2

Post-emergent action, rating, Sinapis for Sinapis with input CC1CCCC(OS2=NC(N)=NC(Oc3cc(F)ccc3F)=N2)C1 (stereo not shown) equals 2

Post-emergent action, rating, Sinapis for Sinapis with input CCCC(CC)OS1=NC(N)=NC(Oc2c(F)c(F)c(F)c(F)c2F)=N1 (stereo not shown) equals 1

Post-emergent action, rating, Sinapis for Sinapis with input NC1=NC(Oc2c(F)c(F)c(F)c(F)c2F)=NS(NC2CCCCC2)=N1 (stereo not shown) equals 3

Post-emergent action, rating, Sinapis for Sinapis with input CC1CCC2C(CCN2S2=NC(N)=NC(Oc3c(F)c(F)c(F)c(F)c3F)=N2)C1 (stereo not shown) equals 1

Post-emergent action, rating, Sinapis for Sinapis with input NC1=NS(N2CCC3CCCCC3CC2)=NC(Oc2c(F)c(F)c(F)c(F)c2F)=N1 (stereo not shown) equals 1

Post-emergent action, rating, Sinapis for Sinapis with input CC1CN(S2=NC(N)=NC(Oc3c(F)c(F)c(F)c(F)c3F)=N2)CCC(C)(C)C1 (single isomer, unassigned) [6.92] equals 1

Post-emergent action, rating, Sinapis for Sinapis with input C[Si](C)(C)COS1=NC(N)=NC(Oc2c(F)c(F)c(F)c(F)c2F)=N1 (stereo not shown) equals 2

Post-emergent action, rating, Sinapis for Sinapis with input NC1=NC(Oc2c(F)c(F)c(F)c(F)c2F)=NS(N2CCC[C@H]3CCC[C@H]32)=N1 (relative stereo) equals 2

Post-emergent action, rating, Sinapis for Sinapis with input CC1(C)CCCN(S2=NC(N)=NC(Oc3c(F)c(F)c(F)c(F)c3F)=N2)C1 (stereo not shown) equals 2

Post-emergent action, rating, Sinapis for Sinapis with input CC1CC(C)CC(OS2=NC(N)=NC(Oc3c(F)c(F)c(F)c(F)c3F)=N2)C1 (stereo not shown) equals 2

Post-emergent action, rating, Sinapis for Sinapis with input NC1=NS(N2CC3CCC(CC3)C2)=NC(Oc2cc(F)ccc2F)=N1 (stereo not shown) equals 2

* * *

# Test system: Stellaria
# procedure summary: Post-emergent herbicidal action (contact herbicide)
# Assay type: in vivo
# condition parameters: 2000 g of active substance/ha, sprayed in the 4- to 6-leaf stage, evaluated after about 18 days, ratings scale 1-9
Listed below: Post-emergent action, rating, Stellaria values for each entry.
Give the figure only, with no unit attached.

Below are worked cases with known answers.
For this compound ( NC1=NC(Oc2c(F)c(F)c(F)c(F)c2F)=NS(N2CCCC3CCCCC32)=N1 (centres unmarked) ), measured Post-emergent action, rating, Stellaria is 2

For this compound ( CCC(C)(C)C1CCC(OS2=NC(N)=NC(Oc3c(F)c(F)c(F)c(F)c3F)=N2)CC1 (centres unmarked) ), measured Post-emergent action, rating, Stellaria is 3

For this compound ( CC1CCCC(OS2=NC(N)=NC(Oc3c(F)c(F)c(F)c(F)c3F)=N2)C1 (centres unmarked) ), measured Post-emergent action, rating, Stellaria is 4

For this compound ( CC1CCN(S2=NC(N)=NC(Oc3c(F)c(F)c(F)c(F)c3F)=N2)C2CCCCC12 (centres unmarked) ), measured Post-emergent action, rating, Stellaria is 3

New cases:
For this compound ( CC(OS1=NC(N)=NC(Oc2c(F)c(F)c(F)c(F)c2F)=N1)[Si](C)(C)C (centres unmarked) ), measured Post-emergent action, rating, Stellaria is 5

For this compound ( CC1(C)CC2CC(C)(CN2S2=NC(N)=NC(Oc3c(F)c(F)c(F)c(F)c3F)=N2)C1 (single isomer, unassigned) [6.153] ), measured Post-emergent action, rating, Stellaria is 2

For this compound ( NC1=NS(N2CCCCCCCC2)=NC(Oc2c(F)c(F)cc(F)c2F)=N1 (centres unmarked) ), measured Post-emergent action, rating, Stellaria is 3

For this compound ( NC1=NC(Oc2c(F)c(F)c(F)c(F)c2F)=NS(N2CCc3ccccc3CC2)=N1 (centres unmarked) ), measured Post-emergent action, rating, Stellaria is 2

For this compound ( NC1=NS(N2CC3CCC(CC3)C2)=NC(Oc2cc(F)ccc2F)=N1 (centres unmarked) ), measured Post-emergent action, rating, Stellaria is 3

* * *

# Tested on: Stellaria
# procedure summary: Post-emergent herbicidal action (contact herbicide)
# Format: in vivo
# condition parameters: 2000 g of active substance/ha, sprayed in the 4- to 6-leaf stage, evaluated after about 18 days, ratings scale 1-9
Listed below: Post-emergent action, rating, Stellaria values for each entry.
Give the figure only, with no unit attached.

Below are worked cases with known answers.
For this compound ( NC1=NS(N2CCc3ccccc3C2)=NC(Oc2c(F)c(F)cc(F)c2F)=N1 (stereo not drawn) [6.173] ), measured Post-emergent action, rating, Stellaria is 3

For this compound ( CC1(C)C2CCC1(C)C(OS1=NC(N)=NC(Oc3c(F)c(F)c(F)c(F)c3F)=N1)C2 (stereo not drawn) [5.154] ), measured Post-emergent action, rating, Stellaria is 4

For this compound ( CC1(C)CCCN(S2=NC(N)=NC(Oc3cc(F)ccc3F)=N2)C1 (stereo not drawn) [6.129] ), measured Post-emergent action, rating, Stellaria is 3

For this compound ( NC1=NS(N2CCC3CCCCC3CC2)=NC(Oc2c(F)c(F)c(F)c(F)c2F)=N1 (stereo not drawn) [6.283] ), measured Post-emergent action, rating, Stellaria is 4

For this compound ( CC1N(S2=NC(N)=NC(Oc3c(F)c(F)c(F)c(F)c3F)=N2)CCCC1(C)C (stereo not drawn) [6.90] ), measured Post-emergent action, rating, Stellaria is 4

New cases:
For this compound ( CCCC(CC)OS1=NC(N)=NC(Oc2c(F)c(F)c(F)c(F)c2F)=N1 (stereo not drawn) [5.332] ), measured Post-emergent action, rating, Stellaria is 2

For this compound ( NC1=NC(Oc2c(F)c(F)c(F)c(F)c2F)=NS(N2CCCC3CCCCCCC32)=N1 (stereo not drawn) [6.102] ), measured Post-emergent action, rating, Stellaria is 3

For this compound ( NC1=NC(Oc2cc(F)ccc2F)=NS(N2CCCC3CCCCC32)=N1 (stereo not drawn) [6.135] ), measured Post-emergent action, rating, Stellaria is 3

For this compound ( CC1CCN(S2=NC(Oc3cc(F)ccc3F)=NC(N)=N2)CC(C)(C)C1 (stereo not drawn) [6.249] ), measured Post-emergent action, rating, Stellaria is 2

* * *

# Test system: Stellaria
# procedure summary: Post-emergent herbicidal action (contact herbicide)
# Type: in vivo
# condition parameters: 2000 g of active substance/ha, sprayed in the 4- to 6-leaf stage, evaluated after about 18 days, ratings scale 1-9
measure name: Post-emergent action, rating, Stellaria
Give the figure only, with no unit attached.

Below are worked cases with known answers.
Post-emergent action, rating, Stellaria for Stellaria with input CC1(C)CCCN(S2=NC(N)=NC(Oc3c(F)c(F)c(F)c(F)c3F)=N2)C1 (stereo not shown) equals 2

Post-emergent action, rating, Stellaria for Stellaria with input CCN(C1CC(C)CC(C)(C)C1)S1=NC(N)=NC(Oc2c(F)c(F)c(F)c(F)c2F)=N1 (stereo not shown) equals 3

Post-emergent action, rating, Stellaria for Stellaria with input CN(Cc1ccc(Cl)nc1)S1=NC(N)=NC(Oc2c(F)c(F)c(F)c(F)c2F)=N1 (stereo not shown) equals 3

Here is another compound to look at.
Post-emergent action, rating, Stellaria for Stellaria with input NC1=NC(Oc2c(F)c(F)c(F)c(F)c2F)=NS(N2CCC[C@H]3CCC[C@H]32)=N1 (relative stereo) equals 3
